System: SF-268 CNS
Test: NCI-60 one-dose screen, 48 h (100 = growth as untreated, 0 = no growth, -100 = all killed)
Conditions: 10 µM unless noted
Compounds without any hit were thinned out: in the full panel of roughly 83,000, 20% have a hit.
Reported growth values for the following molecules.
Note: unit % is implicit; provide only the numeric part.

Consider the worked cases shown below.
[[record]]
molecule = "CCCCCCCCSc1ncnc2c1ncn2CO"
measurementtarget = "SF-268 CNS"
resulttype = "growth"
quantitativereadout = 97.6

[[record]]
molecule = "COc1ccc(OC)c(NC(=O)c2cc3oc4ccccc4c3cc2O)c1"
measurementtarget = "SF-268 CNS"
resulttype = "growth"
quantitativereadout = 87.9

[[record]]
molecule = "O=C(CSc1nnc(Nc2ccccc2)s1)NCCc1ccc(F)cc1"
measurementtarget = "SF-268 CNS"
resulttype = "growth"
quantitativereadout = 109

[[record]]
molecule = "CC(=O)c1ccc2c3c(n(C)c2c1)CCCC3"
measurementtarget = "SF-268 CNS"
resulttype = "growth"
quantitativereadout = 101

[[record]]
molecule = "CO[C@H]1CC(O[C@@H]2/C(C)=C/C[C@@H]3C[C@@H](C[C@]4(CC[C@H](C)[C@@H](C5CCCCC5)O4)O3)OC(=O)[C@@H]3C=C(C)/C(=N/O)[C@H]4OC/C(=C\\C=C\\[C@@H]2C)[C@]43O)O[C@@H](C)C1O (some centres not stated)"
measurementtarget = "SF-268 CNS"
resulttype = "growth"
quantitativereadout = -92.2

[[record]]
molecule = "Cc1cc(C(C)(C)C)cc(C)c1CC1=NCCN1"
measurementtarget = "SF-268 CNS"
resulttype = "growth"
quantitativereadout = 100


// below: growth requested for another molecule
(Q) Give its growth value. Item: O=C(NCCCO)c1cc(Cl)ccc1O
(A) 28.4

---

System: HCT-15 colon
Assay: NCI-60 one-dose screen, 48 h (100 = growth as untreated, 0 = no growth, -100 = all killed)
Settings: 10 µM unless noted
This is part of a sample that, as a whole, favours compounds with a hit. Of some 83,000 tested, about 20% had one in any assay.
resultType: growth (%)
Note: unit % is implicit; provide only the numeric part.

[[record]]
molecule = "O=C(C(=O)N1CCOCC1)c1ccc(OC2OC(CO)C(O)C(O)C2O)cc1 (stereo not given)"
quantitativereadout = 104

[[record]]
molecule = "CC1SC(c2c(Cl)cccc2Cl)N(NC(=O)c2[nH]c3ccc(F)cc3c2-c2ccccc2)C1=O (stereo not given)"
quantitativereadout = 65.1

[[record]]
molecule = "N#Cc1c2ccccc2c2n1-c1ccccc1OC(c1ccccc1)C2=O (stereo not given)"
quantitativereadout = 13.8


(Q) Give its growth value. Item: COc1cc(C2CC(=O)Nc3c2cc(Br)c2ccccc32)cc(Br)c1OC (stereo not given)
(A) 39.6

(Q) Give its growth value. Item: N#Cc1cccc(/C=C(/C(=O)c2ccccc2)c2ccccc2)c1
(A) 18.9

(Q) Give its growth value. Item: COC(=O)C[C@@H]1CC=CC(=O)/C1=C(O)/C=C/c1ccccc1
(A) -53.9

(Q) Give its growth value. Item: c1ccc(-c2nn[nH]n2)c(-c2ccc(CN3CCN(c4nsc5ccccc45)CC3)cc2)c1
(A) 82.9

(Q) Give its growth value. Item: CCOC(=O)/C(=C/c1ccccc1)C(=O)c1ccccc1
(A) 51.9

(Q) Give its growth value. Item: Clc1ccc2c(Nc3ccc4oc(NCCN5CCCC5)nc4c3)ccnc2c1
(A) 49.3

(Q) Give its growth value. Item: COc1ccc2[nH]cc(/C=C3/C(=O)Nc4ccc(Cl)cc43)c2c1
(A) 30.4
